Assay: method code SF-AS, from DOI: 10.1002/jps.2600830720, PMID: 7965659
Settings: pH 10.0
Where a SMILES comes first, the peptide text is derived from it. [ ]: non-standard residue; d: D form. Orn = NCCC[CH](N)C(=O)O
One threshold, 0.5, splits the recorded logD values: lower ones are criterion met, equal or higher ones are criterion not met.

CC(=O)NC(CCCN)C(=O)NC(Cc1ccccc1)C(=O)NC(CC(C)C)C(N)=O (stereo not drawn) (Ac-[Orn]-Phe-Leu-NH2; configuration not given here) = criterion not met
CC(=O)NC(Cc1ccccc1)C(=O)NC(Cc1c[nH]c2ccccc12)C(=O)NC(Cc1cnc[nH]1)C(N)=O (stereo not drawn) (Ac-Phe-Trp-His-NH2; configuration not given here) = criterion not met
CCC(C)C(NC(=O)C(Cc1c[nH]cn1)NC(C)=O)C(=O)NC(Cc1ccccc1)C(N)=O (stereo not drawn) (Ac-His-Ile-Phe-NH2; configuration not given here) = criterion met
CC(=O)NC(Cc1ccccc1)C(=O)NC(Cc1c[nH]cn1)C(=O)NC(CC(C)C)C(N)=O (stereo not drawn) (Ac-Phe-His-Leu-NH2; configuration not given here) = criterion not met
CC(=O)NC(CCCN)C(=O)NC(Cc1ccccc1)C(N)=O (stereo unspecified) = criterion met
CC(=O)NC(Cc1c[nH]c2ccccc12)C(=O)NC(Cc1cnc[nH]1)C(=O)NC(C(N)=O)C(C)C (stereo not drawn) (Ac-Trp-His-Val-NH2; configuration not given here) = criterion met

# strict comparison: is reported logD < 0.5? input = CC(=O)NCC(=O)N[C@@H](Cc1ccccc1)C(=O)N[C@@H](Cc1c[nH]cn1)C(N)=O
criterion met

Field entry: CC[C@H](C)[C@H](NC(C)=O)C(=O)N[C@@H](Cc1c[nH]cn1)C(=O)N[C@H](C(N)=O)C(C)C
criterion met

Field entry: CC(=O)NC(CC(C)C)C(=O)NC(CCCN)C(=O)NC(Cc1ccccc1)C(N)=O (stereo unspecified) (Ac-Leu-[Orn]-Phe-NH2; configuration not given here)
criterion not met

Field entry: CC(=O)NC(CCCN)C(=O)NC(CC(C)C)C(N)=O (stereo unspecified) (Ac-[Orn]-Leu-NH2; configuration not given here)
criterion met

Field entry: CC[C@H](C)[C@H](NC(=O)[C@H](CCCN)NC(C)=O)C(=O)N[C@H](C(N)=O)C(C)C
criterion met
